The measured values listed here are drawn from the RNAGym collection of RNA variant scans (doi:10.7554/elife.90254).

B1: LINE1-mini (parent)
chain: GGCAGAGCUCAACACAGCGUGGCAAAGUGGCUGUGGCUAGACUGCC

Variants of: B1
method.notes: self-cleavage, relative activity (ratio to wild type); higher = more cleavage; in vitro, sequencing; the parent is a self-cleaving ribozyme
quantity.kind: self-cleavage

[[record]]
record_sequence = "GGCAGAGCUCAAAACAGCGUGGCAAAGUGGCUGUGGCUAGCCUGCC [C13A A41C]"
value = 0.06

[[record]]
record_sequence = "GGCAGAGCUCAACACAGCGUGGCAAAUUGGCUGUGGCUAGACUUCC [G27U G44U]"
value = 0.37

[[record]]
record_sequence = "GGCAUAGCUCAACACAGCGUGGCCAAGUGGCUGUGGCUAGACUGCC [G5U A24C]"
value = 0.08

[[record]]
record_sequence = "GGCACAGCUCAACACAGCGUGGCAAAGUGCCUGUGGCUAGACUGCC [G5C G30C]"
value = 0.07

[[record]]
record_sequence = "GGCAUAGCUCAACACAGCGUGGCAAAGUGGCGGUGGCUAGACUGCC [G5U U32G]"
value = 0.09

[[record]]
record_sequence = "GGCAGAGCUCAACACAGCGUGGCAAAUUGGAUGUGGCUAGACUGCC [G27U C31A]"
value = 0.46

[[record]]
record_sequence = "GGCAGAGCUCAACACAGCGUGGCAAAGUCGCUGUGGCUACACUGCC [G29C G40C]"
value = 0.05

[[record]]
record_sequence = "GGCAGAGCUCAACACAGCGUUGCACAGUGGCUGUGGCUAGACUGCC [G21U A25C]"
value = 1.44

[[record]]
record_sequence = "GGCAGAACUCAACACAGUGUGGCAAAGUGGCUGUGGCUAGACUGCC [G7A C18U]"
value = 0.12

[[record]]
record_sequence = "GGCAGAGCUCAACACAGCGUGGUAAAGUGGCUGUGGCUAGACUGAC [C23U C45A]"
value = 0.47

[[record]]
record_sequence = "GGCAGAGCUCAAUACAGCGUGGCAAAGUGGCUGUGGCUUGACUGCC [C13U A39U]"
value = 0.08

[[record]]
record_sequence = "GGCAGAGCUCAACACAGCGUGGCAAAGUGGCUGUAGUUAGACUGCC [G35A C37U]"
value = 0.06

[[record]]
record_sequence = "GGCACAGCUCAACACAGCGUGGCAAAGUGGCUCUGGCUAGACUGCC [G5C G33C]"
value = 0.03

[[record]]
record_sequence = "GGCAGAGCUCAACACAGCGGGGCAAAGUGGCUGUGACUAGACUGCC [U20G G36A]"
value = 0.08

[[record]]
record_sequence = "GGCAGAGCUCAACACAGCGUGUCAAAGUGGCGGUGGCUAGACUGCC [G22U U32G]"
value = 0.15

[[record]]
record_sequence = "UGCAGAGCUCAACACAGCGUGGCAAAGUGGCUGUGGCUAAACUGCC [G1U G40A]"
value = 0.04

[[record]]
record_sequence = "GGCAGAGCUCAACACAGCGUGGCAAAGUGGGUGUGGCUAGACAGCC [C31G U43A]"
value = 0.13

[[record]]
record_sequence = "GGCAGAGCUCAACACAGCGUGUCCAAGUGGCUGUGGCUAGACUGCC [G22U A24C]"
value = 0.92

[[record]]
record_sequence = "GGCAGAGGUCAACACAGCGUGGCAGAGUGGCUGUGGCUAGACUGCC [C8G A25G]"
value = 0.1

[[record]]
record_sequence = "GGCCGAGCUCAACACAGGGUGGCAAAGUGGCUGUGGCUAGACUGCC [A4C C18G]"
value = 0.11

[[record]]
record_sequence = "GGCAGAGCCCAACACAGCGUGACAAAGUGGCUGUGGCUAGACUGCC [U9C G22A]"
value = 0.04

[[record]]
record_sequence = "GGCAGAGCACAAAACAGCGUGGCAAAGUGGCUGUGGCUAGACUGCC [U9A C13A]"
value = 0.2

